- Tested on: HeLa
- Protocol Notes: In vitro anticellular activity tested against HeLa S3 cells
- Assay type: functional, cell-based
- Condition Notes: Homo sapiens
Binary label based on IC50 with cut-off 2000 nM: below gives satisfied, not below gives not satisfied.

Some solved entries appear below for comparison.
Input: Determine whether this molecule shows IC50 lower than 2000 nM (ties excluded): CO[C@@]12[C@H](COC(N)=O)C3=C(C(=O)C(CSc4ccccc4)=C(N)C3=O)N1C[C@@H]1N[C@@H]12
Output: satisfied

Input: In plain terms, does C=CCSCC1=C(N)C(=O)C2=C(C1=O)N1C[C@@H]3N[C@@H]3[C@]1(OC)[C@@H]2COC(N)=O come in under 2000 nM for IC50?
Output: not satisfied

Input: Below 2000 nM on IC50? Entry CO[C@@]12[C@H](COC(N)=O)C3=C(C(=O)C4=C(Nc5ccccc5SC4)C3=O)N1C[C@@H]1N[C@@H]12
Output: satisfied

Input: Does CO[C@@]12[C@H](COC(N)=O)C3=C(C(=O)C(CSC4OC(COC(C)=O)C(OC(C)=O)C(OC(C)=O)C4OC(C)=O)=C(N)C3=O)N1C[C@@H]1N[C@@H]12 (some centres not stated) have IC50 strictly under 2000 nM?
Output: satisfied

Input: Does the reported IC50 of the following molecule sit strictly below 2000 nM? CO[C@@]12[C@H](COC(N)=O)C3=C(C(=O)C(CSc4ncc[nH]4)=C(N)C3=O)N1C[C@@H]1N[C@@H]12
Output: not satisfied

Input: Strictly below 2000 nM in IC50? CO[C@@]12[C@H](COC(N)=O)C3=C(C(=O)C(CSc4ccccc4C(C)C)=C(N)C3=O)N1C[C@@H]1N[C@@H]12
Output: not satisfied

Please turn your attention to the following entry.
Input: Consider CO[C@@]12[C@H](COC(N)=O)C3=C(C(=O)C(CO)=C(N)C3=O)N1C[C@@H]1N[C@@H]12 . Does its IC50 lie strictly below 2000 nM?
Output: not satisfied

* * *

Catalogue of compounds with associated OD
- Tested on: CCRF S-180
- Protocol Notes: Optimal dose towards sarcoma 180 cells, inoculated subcutaneously to the axillary region of ddY mice
- Type: functional, Mus musculus
The reply should be a number in mg/kg, with the unit left off.

These recorded examples may help you get a feel for the data.
Input: Respond only with OD recorded for CO[C@@]12[C@H](COC(N)=O)C3=C(C(=O)C(CSc4nc(C)cc(C)n4)=C(N)C3=O)N1C[C@@H]1N[C@@H]12
Output: 6.3

Input: Give OD for CO[C@@]12[C@H](COC(N)=O)C3=C(C(=O)C(CSC4=NCCS4)=C(N)C3=O)N1C[C@@H]1N[C@@H]12
Output: 6.3

Input: Using the record for CO[C@@]12[C@H](COC(N)=O)C3=C(C(=O)C(CSC(C)C)=C(N)C3=O)N1C[C@@H]1N[C@@H]12 , state its measured OD.
Output: 25

Input: Return value of OD for input CO[C@@]12[C@H](COC(N)=O)C3=C(C(=O)C(CSc4ccccc4)=C(N)C3=O)N1C[C@@H]1N[C@@H]12 , no commentary.
Output: 22

Input: Give OD for the following compound: CO[C@@]12[C@H](COC(N)=O)C3=C(C(=O)C(CSc4nc5ccccc5s4)=C(N)C3=O)N1C[C@@H]1N[C@@H]12
Output: 50

Input: Tell me its OD given CO[C@@]12[C@H](COC(N)=O)C3=C(C(=O)C4=C(Nc5ccccc5SC4)C3=O)N1C[C@@H]1N[C@@H]12 as the entry.
Output: 100

Input: For the compound CO[C@@]12[C@H](COC(N)=O)C3=C(C(=O)C(CSc4nncn4C)=C(N)C3=O)N1C[C@@H]1N[C@@H]12 , give its reported OD.
Output: 46

Input: Give the reported OD for this compound. CO[C@@]12[C@H](COC(N)=O)C3=C(C(=O)C(CSc4ncccn4)=C(N)C3=O)N1C[C@@H]1N[C@@H]12
Output: 13

Continuing:
Input: Fill in reported OD for this entry: C=CCSCC1=C(N)C(=O)C2=C(C1=O)N1C[C@@H]3N[C@@H]3[C@]1(OC)[C@@H]2COC(N)=O
Output: 14

Input: Look up and state reported OD for CO[C@@]12[C@H](COC(N)=O)C3=C(C(=O)C(CSCC4CC4)=C(N)C3=O)N1C[C@@H]1N[C@@H]12
Output: 25
